Tested on: G95A mutant ALS
Assay explanation: Inhibition of expressed GST fusion G95A mutant ALS activity by herbicides
Type: biochemical, rice
Run parameters: 50% inhibitory concentration against G95A mutant ALS to that against wild-type ALS
Parameter Resistance ratio (RS ratio): see the listing below.

Some compounds with known Resistance ratio (RS ratio) results, for comparison:
CON=C(C)c1cccc(Oc2nc(OC)cc(OC)n2)c1C(=O)O (mixture of isomers) = >13000
CC(C)C1(C)N=C(c2nc3ccccc3cc2C(=O)O)NC1=O (stereo not shown) = 0.82

Resistance ratio (RS ratio) on G95A mutant ALS for COc1cc(OC)nc(Oc2cccc(Oc3nc(OC)cc(OC)n3)c2C(=O)[O-])n1.[Na+] [Bispyribac-sodium, bispyribac-sodium] is >16000

Resistance ratio (RS ratio) on G95A mutant ALS for CC(C)C1(C)N=C(c2ncccc2C(=O)O)NC1=O (stereo not shown) is 4.9

Resistance ratio (RS ratio) on G95A mutant ALS for `COc1nc(C)nc(NC(=O)NS(=O)(=O)c2ccccc2Cl)n1` is 0.19

Resistance ratio (RS ratio) on G95A mutant ALS for `COC(=O)c1ccccc1CS(=O)(=O)NC(=O)Nc1nc(OC)cc(OC)n1` is 40

Resistance ratio (RS ratio) on G95A mutant ALS for COc1cc(OC)nc(Sc2cccc(Cl)c2C(=O)[O-])n1.[Na+] [Pyrithiobac-sodium, pyrithiobac-sodium] is >9100
